# targetDesc: T1, human plasma Kallikrein (human, UniProt P03952 20-638)
# T1 construct: also called hPK; human PK
# T1 sequence (P03952 20-638 limits assumed): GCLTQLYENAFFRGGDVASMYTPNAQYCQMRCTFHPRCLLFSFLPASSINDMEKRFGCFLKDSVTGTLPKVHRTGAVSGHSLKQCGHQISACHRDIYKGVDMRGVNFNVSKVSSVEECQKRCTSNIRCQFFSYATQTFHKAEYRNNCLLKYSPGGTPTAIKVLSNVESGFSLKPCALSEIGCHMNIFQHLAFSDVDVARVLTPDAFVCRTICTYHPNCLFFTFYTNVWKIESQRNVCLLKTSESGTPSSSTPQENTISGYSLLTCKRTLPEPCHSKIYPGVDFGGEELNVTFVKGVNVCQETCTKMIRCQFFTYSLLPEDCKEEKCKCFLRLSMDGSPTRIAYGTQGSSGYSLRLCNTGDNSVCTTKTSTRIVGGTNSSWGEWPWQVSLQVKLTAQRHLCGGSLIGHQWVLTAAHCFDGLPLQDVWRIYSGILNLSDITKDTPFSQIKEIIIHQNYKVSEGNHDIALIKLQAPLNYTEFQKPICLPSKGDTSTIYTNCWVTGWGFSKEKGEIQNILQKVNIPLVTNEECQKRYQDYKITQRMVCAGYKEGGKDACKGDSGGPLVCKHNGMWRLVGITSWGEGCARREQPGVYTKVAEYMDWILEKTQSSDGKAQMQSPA
# assayOverview: enzyme inhibition
Numbered stars: 1 amine (or outer) side, 2 acyl side, 3 side chain; on linkers, the order of the positions; unused ones are H or OH. Bridge positions count the residues as written; N and C are the ends. Ends that are not written are not given here. TBMB = c1c(C[*:1])cc(C[*:3])cc1C[*:2]
reportedProperty: log10 of Ki (log10 of the value in nM)
For clarity, the numbers are log10 values of Ki expressed in nM.

Sample ACSWPYRCLHQDYCA (linker 2-8-14 via TBMB; not fully specified (N-terminus, C-terminus)) [06-61] — what was its log10 of Ki?
0.76

For ACGVPYRCTHQEMCA (linker 2-8-14 via TBMB; not fully specified (N-terminus, C-terminus)) [06-64 T] then?
0.84

Please answer likewise for ACTYPYKCLHQNLCA (linker 2-8-14 via TBMB) [2A10]
0.70

Repeat with Ac-CSFPYRCLTTELC-NH2 (linker 1-7-13 via TBMB; SMILES CC(=O)N[C@H]1CSCc2cc3cc(c2)CSC[C@H](NC(=O)[C@H](CCCNC(=N)N)NC(=O)[C@H](Cc2ccc(O)cc2)NC(=O)[C@@H]2CCCN2C(=O)[C@H](Cc2ccccc2)NC(=O)[C@H](CO)NC1=O)C(=O)N[C@@H](CC(C)C)C(=O)N[C@@H]([C@@H](C)O)C(=O)N[C@@H]([C@@H](C)O)C(=O)N[C@@H](CCC(=O)O)C(=O)N[C@@H](CC(C)C)C(=O)N[C@H](C(N)=O)CSC3, also called loop 2 LTTEL) [Ac-(06-34-18) Phe2 Tyr4 Thr7 Thr8 Glu9]
1.91

Continue with ACAWPARCAHQDLCA (linker 2-8-14 via TBMB; not fully specified (N-terminus, C-terminus), also called R1A/V6A) [06-34-03 - Ala1,6]
-0.83

Try this binder too: ACRWPARCTHQNYCA (linker 2-8-14 via TBMB; not fully specified (N-terminus, C-terminus)) [06-54 (2A2) T]
-0.31

Continue with ACADPWACLFRRPCA (linker 2-8-14 via TBMB; not fully specified (N-terminus, C-terminus)) [06-63 T]
3.11

ACSWPARCNHQDLCA (linker 2-8-14 via TBMB; not fully specified (N-terminus, C-terminus)) [06-57] ?
-0.40

Source listed as patent US20180362585A1.
